Tested on: Fibroblast
ASSAY NAME: Multiplex assay against human fibroblast
Assay type: toxicity, cell-based
CONDITION SUMMARY: 24 h, 10 µM, compound concentration 10 uM, replicate 1
VALUE KIND: Population Tubulin-Different-Phenotype (%)

{"COMPOUND": "CCCc1cc(C)[nH]c(=O)c1CNC(=O)c1cc(-c2ccc(N3CCN(C(C)C)CC3)nc2)cc2c1cnn2C(C)C", "RESULT NUMBER": 59}
{"COMPOUND": "CCCCCNC(=N)N/N=C/c1c[nH]c2ccc(OC)cc12.O=C(O)/C=C\\C(=O)O [TEGASEROD MALEATE]", "RESULT NUMBER": 75}
{"COMPOUND": "CC[C@@H]1C(=O)N(C)c2cnc(Nc3ccc(C(=O)NC4CCN(C)CC4)cc3OC)nc2N1C1CCCC1", "RESULT NUMBER": 21}
{"COMPOUND": "Cc1ccc(S(=O)(=O)NC2c3ccccc3Oc3ccccc32)cc1", "RESULT NUMBER": 28}
{"COMPOUND": "C=CC(=O)Nc1cc(-n2c(=O)ccc3cnc4ccc(-c5ccc(NS(C)(=O)=O)cc5)cc4c32)ccc1C", "RESULT NUMBER": 50}
{"COMPOUND": "Cc1ccc(NC(=O)Nc2cc(C(F)(F)F)ccc2F)cc1Nc1ccc2c(c1)NC(=O)/C2=C\\c1ccc[nH]1", "RESULT NUMBER": 5}
{"COMPOUND": "CN(c1cc(C(F)(F)F)nc(OCCC(=O)O)n1)c1cccc2c1CCC2", "RESULT NUMBER": 34}
